Where do the numbers come from? From PubChem BioAssay (NCI).

system: CCRF-CEM leukemia; assay: NCI-60 one-dose screen, 48 h; conditions: 10 µM unless noted
This is part of a sample that, as a whole, favours compounds with a hit. Of some 83,000 tested, about 20% had one in any assay. Active and inactive are the calls of the source. The calls were made as follows: active = growth percent below 10; inactive = the rest.
Tick one outcome: yes (1) for active, no (0) for inactive

Record excerpt, results attached:
Recorded call for N#CCCN1CCN(CCC#N)C1=S ? no (0)

Recorded call for COc1ccc(-c2c3c(N)c4c(nc3nc3c2c(C)nn3-c2ccccc2)CCCCC4)cc1 ? no (0)

Recorded call for CON=C1C[C@]2(C[C@@H]3C[C@@H](C/C=C(\C)C[C@@H](C)/C=C/C=C4\CO[C@@H]5[C@H](O)C(C)=C[C@@H](C(=O)O3)[C@]45O)O2)O[C@H](/C(C)=C/C(C)C)[C@H]1C ? no (0)

***
Recorded call for O=C(Nc1ccc(F)cc1)c1ccc(C(=O)Nc2ccc(F)cc2)cc1 ? no (0)

Recorded call for C=C1CC[C@@H]2[C@@](C)(CCC[C@]2(C)C(=O)O)[C@@H]1CC[C@H](CO)CCO ? no (0)

Recorded call for CCN(CC)c1ccc2c(c1)OS(=O)(=O)N=C2 ? no (0)

Recorded call for O=C1C=CC(=O)N1CCCCCCCCCCN1C(=O)C=CC1=O ? no (0)

Recorded call for CCCCCCCC/C=C\CCCCCCCCOc1cccc(CC(=O)NCC[N+]2(C)CCCCC2)c1 ? no (0)

Recorded call for CC(=O)Nc1ccc(S(=O)(=O)N/N=C\c2ccc(Cl)c(Cl)c2)cc1 ? no (0)

Recorded call for Cc1nc2cc(Nc3nc(N4CCCCC4)nc(N4CCOCC4)n3)ccc2n1Cc1ccccc1 ? no (0)

Recorded call for Clc1ccc(Nc2ccnc(N3CCN(c4ccnc5cc(Cl)ccc45)CC3)n2)cc1 ? no (0)

Recorded call for COc1ccc(OC2=C(C#N)C(=N)N3c4ccccc4Sc4ccccc4C3N2)cc1 (configuration not stated) ? no (0)

Recorded call for O=c1ccc2ccccc2o1 ? no (0)

Recorded call for O=C(N/N=C/c1ccc2c(c1)OCO2)c1cnn2c1NC(c1ccccc1)C2 (configuration not stated) ? no (0)

Recorded call for NC(=S)N/N=C1\c2ccccc2-c2c(F)c(F)c(F)c(F)c21 ? yes (1)

Recorded call for O=c1c2cc(F)ccc2oc2c(NCCNCCO)nc3ccccc3c12 ? no (0)

---

test system: T-47D breast; experiment: NCI-60 one-dose screen, 48 h (100 = growth as untreated, 0 = no growth, -100 = all killed); settings: 10 µM
The panel holds about 83,000 compounds, 20% with a hit somewhere; the sample as a whole holds those more often.
endpoint_name: growth (%)
Numeric only. Scale: %

Observe how each entry below is paired with its result.
Which measured growth value corresponds to Cc1nn(-c2ccccc2)c2nc3nc4c(c(N)c3c(-c3ccc(Cl)cc3)c12)CCCC4 ? 108

Which measured growth value corresponds to O=C(COc1cccc(/C=C2\COc3ccccc3C2=O)c1)c1ccccc1 ? 75.3

Which measured growth value corresponds to NS(=O)(=O)c1ccc(C(=O)N/N=C(\CS(=O)(=O)c2ccccc2)c2cc3cc(Br)ccc3o2)cc1 ? 88.1

Which measured growth value corresponds to COc1ccc(-n2ncc3c2ccc2cc(S(=O)(=O)c4ccccc4)c(=O)n(C)c23)cc1 ? 90.6

For the next question, use this compound.
Which measured growth value corresponds to Cc1ccc(-c2c3c(N)c4c(nc3nc3c2c(C)nn3-c2ccccc2)CCCC4)cc1 ? 92.6
